I'd be grateful if you could share measured pIC50 for these entries.
Protein target, amino acids: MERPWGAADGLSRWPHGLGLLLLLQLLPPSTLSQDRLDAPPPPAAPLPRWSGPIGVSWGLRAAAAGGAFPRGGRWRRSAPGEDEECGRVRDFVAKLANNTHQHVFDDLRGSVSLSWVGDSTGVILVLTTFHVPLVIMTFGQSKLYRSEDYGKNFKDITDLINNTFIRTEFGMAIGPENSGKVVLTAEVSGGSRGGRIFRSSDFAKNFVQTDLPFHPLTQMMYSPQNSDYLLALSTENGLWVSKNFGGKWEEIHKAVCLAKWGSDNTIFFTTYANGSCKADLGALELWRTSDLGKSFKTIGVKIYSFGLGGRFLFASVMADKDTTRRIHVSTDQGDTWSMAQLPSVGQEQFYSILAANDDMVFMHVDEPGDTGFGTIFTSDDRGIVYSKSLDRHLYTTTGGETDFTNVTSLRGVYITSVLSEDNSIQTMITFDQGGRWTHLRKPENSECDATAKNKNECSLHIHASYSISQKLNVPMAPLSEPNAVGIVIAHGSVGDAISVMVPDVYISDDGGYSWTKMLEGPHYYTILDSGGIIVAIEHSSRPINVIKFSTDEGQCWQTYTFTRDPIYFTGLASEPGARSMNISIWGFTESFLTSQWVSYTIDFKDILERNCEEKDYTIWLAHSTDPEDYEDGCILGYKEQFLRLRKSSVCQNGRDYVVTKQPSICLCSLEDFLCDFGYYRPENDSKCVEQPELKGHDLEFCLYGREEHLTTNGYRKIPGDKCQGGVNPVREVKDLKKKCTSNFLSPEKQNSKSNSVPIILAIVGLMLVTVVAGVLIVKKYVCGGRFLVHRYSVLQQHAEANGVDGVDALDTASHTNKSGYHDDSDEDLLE
Answers are plain numbers, as −log10 of the molar value.

// batch mode: one pIC50 value per listed entry
1. CC(=O)NC1C(=O)N=NN1CCC(C)C (stereo unspecified)
2. Cc1cccc(C(=O)NC2C(=O)N=NN2CCC(C)C)n1 (stereo unspecified)
3. CC(C)CCN1N=NC(=O)C1C (stereo unspecified)
4. O=c1[nH]nc(-c2ccccc2)o1

4.50
4.40
4.10
3.90

// batch mode: one pIC50 value per listed entry
1. O=C1CN(Cc2ccccc2)N=N1
2. CC(C)CCN1N=NC(=O)C1C(=O)Nc1cccnc1 (stereo unspecified)

1: 3.90; 2: 5.40
